The reported measurements were obtained from the supplement of paper PMC9170038.

Measured apparent KD of MS2 coat protein of individual entries
Test system: MS2 coat protein
PROTOCOL_DESCRIPTION: apparent KD of MS2 coat protein; higher = weaker reporter binding
RECORDED_CONDITIONS: Eterna round: R107; input ligand: tryptophan 2.4 mM

Examples with their reported apparent KD of MS2 coat protein follow.
CGUACAUGAGGAUCACCCAUGUAGAGUGAUACCAGUCUACCUAGUGACCCUUGGCAGCACAUCGAUGGCAUCGGUGAUGCCGUUU [Atveti]	117 nM
AAAAUCCUACUUGAGGAUCACCCAGGUGAAGGAGCGCCCGAAAGGGCAGGUAGGUCGCACCUGAGGAUCACCCUGGUAACCUAAA [ArgEX 9 #DoubleMS2 #OpenEnded]	178 nM

(Q) Give its apparent KD of MS2 coat protein value. Item: GCAAUACAUGAGGAUCACCCAUGUGCAGAUACCAGAGGUGCGUGCCUCCCUUGGCAGCUGCGACGCUCUGGAAGCUUGUGUGUCU [Exclusion Theophylline A GF27]
(A) 21.2 nM

(Q) Also AAAACCUCACCUGAGGAACACCCAGGUGAUACCAGCCUGGAAACAGGCCCUUGGCAGCACCAGGUCAUCAAAGAUGACCAAAUAA [TheoAX 25 #OpenEnded #AlternativeMS2] , if possible.
(A) 21.3 nM

(Q) Then UGUAUGUGAUUUGAUACCAGACCAGCUGGUGGUGCAUGAGGAUCACCCAUGCAGGUUUGGGUCCCUUGGCAGCAAAUCGCAUACU [SS Theo B #24 Ms17] ?
(A) 129 nM

(Q) Consider next the sequence AUAAUGGGUAUCGGAUUAUCAUGGAAUGAUACCAGAUACUUAGAUAUCCCUUGGCAGCAUGAGGACAUGAGGAUCACCCAUGUAU [#03 Exclusion-TheophyllineA] in the same way.
(A) 54.9 nM
